Source of measurements: ChEMBL document CHEMBL1124359

- System: Escherichia coli
- assay explanation: Inhibitory activity (Enzyme inhibition index) against dihydropteroate synthase from Escherichia coli.
quantity name: EII50

Here are 5 molecules together with their reported answers.
Nc1ccc(S(=O)(=O)c2ccc([N+](=O)[O-])cc2[N+](=O)[O-])cc1	36.3
COc1cc(C)cc(C)c1S(=O)(=O)c1ccc(N)cc1	3.02
COc1cc(C)c(S(=O)(=O)c2ccc(N)cc2)c(C)c1	1.77
COc1ccc(S(=O)(=O)c2ccc(N)cc2)c(C)c1	1.77
COc1cc(OC)c(S(=O)(=O)c2ccc(N)cc2)c(OC)c1	12.9

I. Cc1cc(C)c(S(=O)(=O)c2ccc(N)cc2)c(C)c1
II. Nc1ccc(S(=O)(=O)c2c(Cl)cc(Cl)cc2Cl)cc1
INPUT: Given the listed records, identify the one among I and II with higher EII50. Provide the label of your selected option as the answer.
OUTPUT: II
(II: 3.31, I: 1.69)
